The reader will find GI50 measurements below, all made with U251 CNS.

Task item: Returns the measured GI50 for the input compound. Input: `COc1cc(-c2nn(-c3ccc(NC(=O)Nc4ccc(Cl)c(Cl)c4)cc3)cc2-c2ccncc2)ccc1Cl`
Reply: 2840 nM

Task item: Same again, this time with `C=C1C(=O)O[C@H]2[C@H]1CC/C(Cn1cc(CNCCc3c[nH]c4ccc(Cl)cc34)nn1)=C\CC[C@@]1(C)O[C@@H]21`
Reply: 7590 nM

Task item: Same again, this time with `N#CC(C#N)=Cc1c(-c2ccccc2)[nH]c2ccccc12`
Reply: 1180 nM

Task item: Same again, this time with `[C-]#[O+].[Cl][Sn]([Cl])[Cl].[Cl][Sn]([Cl])[Cl].[Pt].c1ccc([PH+](c2ccccc2)c2ccccc2)cc1.c1ccc([PH+](c2ccccc2)c2ccccc2)cc1`
Reply: 15300 nM

Task item: Same again, this time with `COc1ccc(Cl)cc1Nc1nc(C(F)(F)F)ccc1C(=O)N/N=C/c1ccc([N+](=O)[O-])cc1`
Reply: 2060 nM

Task item: Same again, this time with `CN1CCN(CCCOc2cccc3nc(Nc4ccc(Cl)c(F)c4)ccc23)CC1`
Reply: 1810 nM

Task item: Same again, this time with `Cc1cc(N2CCN(C)CC2)nc(NCc2cc(Nc3ccnc4cc(Cl)ccc34)ccc2F)n1`
Reply: 1870 nM

Task item: Same again, this time with `O=C(Cn1c(=O)c(-c2ccccc2)nc2ccccc21)c1ccc(Cl)cc1`
Reply: 37600 nM

Task item: Same again, this time with `O=C(/C=C1\C(=O)N(Cc2ccc([N+](=O)[O-])cc2)c2ccccc21)c1ccc(OCCN2CCCCC2)cc1`
Reply: 1720 nM

Task item: Same again, this time with O=C(/C=C/C12c3ccccc3C(c3ccccc31)C1C(=O)N(c3ccccc3)C(=O)C12)c1ccc(Cl)cc1 (configuration not stated)
Reply: 1840 nM

Task item: Same again, this time with `CC1=CC[C@@H]2C(C)(C)C(=O)CC[C@@]2(C)[C@@H]1COc1ccc2ccc(=O)oc2c1`
Reply: 27600 nM

Task item: Same again, this time with `Cn1cc(C2=C(c3c4n(c5ccccc35)CCCC4)C(=O)NC2=O)c2ccccc21`
Reply: 13200 nM

Task item: Same again, this time with `CN(CCC#N)c1ccc(/C=C(\C#N)c2cccc(C(F)(F)F)c2)cc1`
Reply: 3750 nM

Task item: Same again, this time with `O=[N+]([O-])c1cc([N+](=O)[O-])c(Cl)c(Cl)c1Cl`
Reply: 1590 nM

Task item: Same again, this time with `COc1cc(N2CCN(C(C)C)CC2)ccc1Nc1nc(Nc2cccc3ncccc23)c2cc[nH]c2n1`
Reply: 4540 nM

Task item: Same again, this time with `CCN(CC)C(=O)CC1=C(C)/C(=C/c2[nH]c(-c3ccc[nH]3)cc2OC)N=C1C`
Reply: 449 nM

Task item: Same again, this time with `CC(=O)[CH-]C(=O)c1ccccc1.CC(=O)[CH-]C(=O)c1ccccc1.COc1cccc([O-])c1[O-].[Ti+4]`
Reply: 25700 nM
